Hello, the source for this data is patent US4341893A, in case you need it.

- test: LD 50 rat (Table II)
- runParameters: in vivo, ip / intraperitoneally
A collection of compounds and their measured LD50
valueKind: LD50

# compound, valueReported
rows = [
    ("COc1cccc(C(=O)C2CCN(c3nc(N)c4cc(OC)c(OC)cc4n3)CC2)c1 [Compound 3]", "~500 mg/kg"),
    ("COc1cc2nc(N3CCC(C(=O)c4cccs4)CC3)nc(N)c2cc1OC [Compound 6]", "> 500 mg/kg"),
    ("COc1cc2nc(NCCCN(C)C(=O)c3ccccc3)nc(N)c2cc1OC [Compound 12]", "~400 mg/kg"),
    ("COc1cc2nc(N3CCC(C(=O)c4ccc5c(c4)OCO5)CC3)nc(N)c2cc1OC [Compound 1]", "> 500 mg/kg"),
    ("COc1cc2nc(N3CCC(C(=O)c4ccccc4)CC3)nc(N)c2cc1OC [Compound 2]", "> 500 mg/kg"),
]
